# System: RD-ES
# protocol.notes: relative viability vs DMSO control (72 h) (fraction); higher = more viable cells
# run.parameters: 0.04115 µM
One threshold, 0.7, splits the recorded relative viability values: lower ones are Satisfied, equal or higher ones are Not satisfied.

- CC1(C)CNc2cc(NC(=O)c3cccnc3NCc3ccncc3)ccc21 [Motesanib]: Not satisfied
- O=C(Cc1ccc(-c2ccc(OCCN3CCOCC3)cc2)cn1)NCc1ccccc1 [KX2-391]: Satisfied
- Cc1ccc(F)c(NC(=O)Nc2ccc(-c3cccc4[nH]nc(N)c34)cc2)c1 [Linifanib]: Not satisfied
- CCCS(=O)(=O)Nc1ccc(F)c(C(=O)c2c[nH]c3ncc(-c4ccc(Cl)cc4)cc23)c1F [Vemurafenib]: Not satisfied
- COc1c(OCCCN2CCOCC2)ccc2c1N=C(NC(=O)c1cnc(N)nc1)N1CCN=C21 [Copanlisib]: Satisfied
- C=CC(=O)Nc1cccc(Oc2nc(Nc3ccc(N4CCN(C)CC4)cc3)nc3ccsc23)c1 [Olmutinib]: Not satisfied
